System: Meyerozyma guilliermondii
ASSAY: Antifungal activity against Candida guilliermondii after 48 to 72 hrs
Format: functional
MEASUREMENT_CONDITIONS: Meyerozyma guilliermondii
Each entry below carries its recorded MFC.
Quick reminder: number only, in mg/L, skip the unit.

Examples with answers:
1) CCCCCCc1cc[n+](CCCCCCCCCCCC[n+]2ccc(CCCCCC)cc2)cc1.[Cl-].[Cl-] : 0.39
2) C=CCCCc1cc[n+](CCCCCCCCCCCC[n+]2ccc(CCCC=C)cc2)cc1.[Cl-].[Cl-] : 0.75
3) CCCCCc1cc[n+](CCCCCCCCCCCC[n+]2ccc(CCCCC)c(C)c2)cc1C.[Cl-].[Cl-] : 0.39

What value of MFC has been reported for the following compound? CCCCCc1cc[n+](CCCCCCCCCCCC[n+]2ccc(CCCCC)cc2)cc1.[Cl-].[Cl-] 0.38

Reference source: ChEMBL document CHEMBL1629527
